Assay: Single-dose pharmacokinetics in dogs (plasma, UHPLC/MS/MS)
Type: in vivo, Beagle dogs
Details: female, Beagle, dog, plasma, iv, 12.4 mg/kg
measured property: AUC(0-inf) (ng·h/mL)
Answer format: numeric, ng·h/mL implied, no suffix.

Give AUC(0-inf) for C[C@@H]1O[C@@H](O[C@H]2[C@H](Oc3cc(O)c4c(c3)O[C@H](c3ccc(O)cc3)CC4=O)O[C@H](CO)[C@@H](O)[C@@H]2O)[C@H](O)[C@H](O)[C@H]1O [naringin, Naringin]
3200

---

Experiment: Single ascending dose and food-effect pharmacokinetics of naringin tablets in healthy humans
Type: in vivo, human
Details: male, human, plasma, po, 160 mg, naringin 160 mg p.o. single dose, high-fat diet group, human, male
Protocol: Participants were healthy males and females, 18 to 40 years old, ≥50 kg weight, 19 to 25 kg m^2 body mass index. […] The optimal volume and activity in unit volume of enzyme solution [0.2 M acetic acid/water solution: 0.2 M ammonium acetate/water solution, 15:35 (v/v)] were determined through a pretest of the enzyme (rat plasma, 10 μl, 10 U μl^-1; dog plasma, 10 μl, 10 U μl^-1; human plasma, 20 μl, 20 U μl^-1; human urine, 10 μl, 10 U μl^-1). […]
measured property: Cmax (ng/mL)
Answer format: numeric, ng/mL implied, no suffix.

Give Cmax for C[C@@H]1O[C@@H](O[C@H]2[C@H](Oc3cc(O)c4c(c3)O[C@H](c3ccc(O)cc3)CC4=O)O[C@H](CO)[C@@H](O)[C@@H]2O)[C@H](O)[C@H](O)[C@H]1O [naringin, Naringin]
2.3

---

// AUC(0-t) lookup, one value per entry
Test: Single-dose pharmacokinetics in rats (plasma, UHPLC/MS/MS)
Assay type: in vivo, Sprague Dawley rats
Settings: male, Sprague Dawley, rat, plasma, iv, 42 mg/kg
Answer format: numeric, µg·h/mL implied, no suffix.

| test smiles | AUC(0-t) [µg·h/mL] |
| --- | --- |
| O=C1C[C@@H](c2ccc(O)cc2)Oc2cc(O)cc(O)c21 | 2.99 |

Now, please, on to the next compound.
Give AUC(0-t) for C[C@@H]1O[C@@H](O[C@H]2[C@H](Oc3cc(O)c4c(c3)O[C@H](c3ccc(O)cc3)CC4=O)O[C@H](CO)[C@@H](O)[C@@H]2O)[C@H](O)[C@H](O)[C@H]1O
21.3

---

Test: Single-dose pharmacokinetics in dogs (plasma, UHPLC/MS/MS)
Format: in vivo, Beagle dogs
Conditions: male, Beagle, dog, plasma, po, 3.1 mg/kg
measured property: AUC(0-t)

Give AUC(0-t) for C[C@@H]1O[C@@H](O[C@H]2[C@H](Oc3cc(O)c4c(c3)O[C@H](c3ccc(O)cc3)CC4=O)O[C@H](CO)[C@@H](O)[C@@H]2O)[C@H](O)[C@H](O)[C@H]1O
128 ng·h/mL

---

Assay: Single ascending dose and food-effect pharmacokinetics of naringin tablets in healthy humans
Type: in vivo, human
Settings: both sexes, human, plasma, po, 160 mg, naringin 160 mg p.o. single dose
measured property: Tmax
Hey, just the number and the unit after it is fine.

Give Tmax for C[C@@H]1O[C@@H](O[C@H]2[C@H](Oc3cc(O)c4c(c3)O[C@H](c3ccc(O)cc3)CC4=O)O[C@H](CO)[C@@H](O)[C@@H]2O)[C@H](O)[C@H](O)[C@H]1O [naringin, Naringin]
2.5 h

---

Assay: Single-dose pharmacokinetics in dogs (plasma, UHPLC/MS/MS)
Type: in vivo, Beagle dogs
Settings: female, Beagle, dog, plasma, po, 12.4 mg/kg
measured property: Tmax
Hey, just the number and the unit after it is fine.

Give Tmax for C[C@@H]1O[C@@H](O[C@H]2[C@H](Oc3cc(O)c4c(c3)O[C@H](c3ccc(O)cc3)CC4=O)O[C@H](CO)[C@@H](O)[C@@H]2O)[C@H](O)[C@H](O)[C@H]1O [naringin, Naringin]
1 h

---

Test: Single-dose pharmacokinetics in rats (plasma, UHPLC/MS/MS)
Assay type: in vivo, Sprague Dawley rats
Conditions: male, Sprague Dawley, rat, plasma, po, 42 mg/kg
measured property: AUC(0-inf) (ng·h/mL)
Answer format: numeric, ng·h/mL implied, no suffix.

Give AUC(0-inf) for C[C@@H]1O[C@@H](O[C@H]2[C@H](Oc3cc(O)c4c(c3)O[C@H](c3ccc(O)cc3)CC4=O)O[C@H](CO)[C@@H](O)[C@@H]2O)[C@H](O)[C@H](O)[C@H]1O
74.9

---

Assay: Single-dose pharmacokinetics in rats (plasma, UHPLC/MS/MS)
Format: in vivo, Sprague Dawley rats
Conditions: male, Sprague Dawley, rat, plasma, po, 42 mg/kg; read-out: Cmax
measured property: Cmax
Hey, just the number and the unit after it is fine.

Give Cmax for C[C@@H]1O[C@@H](O[C@H]2[C@H](Oc3cc(O)c4c(c3)O[C@H](c3ccc(O)cc3)CC4=O)O[C@H](CO)[C@@H](O)[C@@H]2O)[C@H](O)[C@H](O)[C@H]1O
0.0927 µg/mL

---

Assay: Single-dose pharmacokinetics in dogs (plasma, UHPLC/MS/MS)
Assay type: in vivo, Beagle dogs
Settings: female, Beagle, dog, plasma, iv, 12.4 mg/kg
Excerpt: Sixty healthy adult Sprague Dawley rats (180-220 g, half male and female) were purchased from the Guangdong Medical Laboratory Animal Center (Guangzhou, Guangdong, China). Thirty Beagle dogs (10-14 kg, half male and female) were purchased from the […] […] The compounds were detected by multiple reaction monitoring in the negative ion electrospray mode. […] All pharmacokinetic and excretion parameters were expressed as mean ± standard deviation (SD). […]
measured property: Tmax
Hey, just the number and the unit after it is fine.

Give Tmax for C[C@@H]1O[C@@H](O[C@H]2[C@H](Oc3cc(O)c4c(c3)O[C@H](c3ccc(O)cc3)CC4=O)O[C@H](CO)[C@@H](O)[C@@H]2O)[C@H](O)[C@H](O)[C@H]1O
4.8 min

---

Assay: Single-dose pharmacokinetics in rats (plasma, UHPLC/MS/MS)
Type: in vivo, Sprague Dawley rats
Settings: both sexes, Sprague Dawley, rat, plasma, po, 21 mg/kg
measured property: Tmax (h)
Answer format: numeric, h implied, no suffix.

Give Tmax for C[C@@H]1O[C@@H](O[C@H]2[C@H](Oc3cc(O)c4c(c3)O[C@H](c3ccc(O)cc3)CC4=O)O[C@H](CO)[C@@H](O)[C@@H]2O)[C@H](O)[C@H](O)[C@H]1O
1.53

---

Assay: Multiple-dose pharmacokinetics in dogs
Assay type: in vivo, Beagle dogs
Conditions: naringin 12.4 mg kg^-1 p.o. three times a day, multiple dose, dog
measured property: CavSS (ng/mL)
Answer format: numeric, ng/mL implied, no suffix.

| test smiles | CavSS, ng/mL |
| --- | --- |
| C[C@@H]1O[C@@H](O[C@H]2[C@H](Oc3cc(O)c4c(c3)O[C@H](c3ccc(O)cc3)CC4=O)O[C@H](CO)[C@@H](O)[C@@H]2O)[C@H](O)[C@H](O)[C@H]1O | 18.6 |

Give CavSS for O=C1C[C@@H](c2ccc(O)cc2)Oc2cc(O)cc(O)c21
49.8

---

Assay: Single-dose pharmacokinetics in rats (plasma, UHPLC/MS/MS)
Assay type: in vivo, Sprague Dawley rats
Settings: male, Sprague Dawley, rat, plasma, po, 10.5 mg/kg
Source text: Sixty healthy adult Sprague Dawley rats (180-220 g, half male and female) were purchased from the Guangdong Medical Laboratory Animal Center (Guangzhou, Guangdong, China). Thirty Beagle dogs (10-14 kg, half male and female) were purchased from the […] […] The compounds were detected by multiple reaction monitoring in the negative ion electrospray mode. […] All pharmacokinetic and excretion parameters were expressed as mean ± standard deviation (SD). […]
measured property: half-life (min)
Answer format: numeric, min implied, no suffix.

Give half-life for C[C@@H]1O[C@@H](O[C@H]2[C@H](Oc3cc(O)c4c(c3)O[C@H](c3ccc(O)cc3)CC4=O)O[C@H](CO)[C@@H](O)[C@@H]2O)[C@H](O)[C@H](O)[C@H]1O [naringin, Naringin]
11.4

---

Experiment: Single-dose pharmacokinetics in dogs (plasma, UHPLC/MS/MS)
Assay type: in vivo, Beagle dogs
Settings: male, Beagle, dog, plasma, po, 12.4 mg/kg
measured property: AUC(0-t) (ng·h/mL)
Answer format: numeric, ng·h/mL implied, no suffix.

Give AUC(0-t) for C[C@@H]1O[C@@H](O[C@H]2[C@H](Oc3cc(O)c4c(c3)O[C@H](c3ccc(O)cc3)CC4=O)O[C@H](CO)[C@@H](O)[C@@H]2O)[C@H](O)[C@H](O)[C@H]1O [naringin, Naringin]
132

---

Assay: Single ascending dose and food-effect pharmacokinetics of naringin tablets in healthy humans
Format: in vivo, human
Details: both sexes, human, plasma, po, 480 mg, naringin 480 mg p.o. single dose
measured property: half-life (h)
Answer format: numeric, h implied, no suffix.

Give half-life for C[C@@H]1O[C@@H](O[C@H]2[C@H](Oc3cc(O)c4c(c3)O[C@H](c3ccc(O)cc3)CC4=O)O[C@H](CO)[C@@H](O)[C@@H]2O)[C@H](O)[C@H](O)[C@H]1O [naringin, Naringin]
2.01
